tested on: TYKNU; test: fractional viability relative to vehicle; higher = less growth inhibition; conditions: 2uM; 72 h; genotype: DNM1L knockout (sgDNM1L #1)
In all, about 2,000 compounds were measured (“fractional viability relative to vehicle”: median about 0.91, lowest 2% from about 0.045 on). The list comes from a sample in which the lowest values are over-represented; it also holds close analogues and randomly drawn compounds.
One threshold, 0.4, splits the recorded fractional viability values: lower ones are true (1), equal or higher ones are false (0).

Input line: Does CCCCc1nc2cc(/C=C/C(=O)NO)ccc2n1CCN(CC)CC [Pracinostat (SB939)] have fractional viability strictly under 0.4?
Output line: true (1)

Input line: Does CN1CCC(Nc2nc(Nc3ccc(Oc4ccccc4)cc3)c3c(=O)[nH]cc(Br)c3n2)CC1 have fractional viability strictly under 0.4?
Output line: true (1)

Input line: Does C=CC(=O)Nc1cccc(Nc2nc(Nc3ccc(OCCOC)cc3)ncc2F)c1 have fractional viability strictly under 0.4?
Output line: false (0)

Input line: Does COC(=O)c1ccc2c(c1)NC(=O)/C2=C(\Nc1ccc(N(C)C(=O)CN2CCN(C)CC2)cc1)c1ccccc1 have fractional viability strictly under 0.4?
Output line: false (0)

Input line: Does CCS(=O)(=O)Nc1ccc2c(c1)/C(=C(/Nc1ccc(CN3CCCCC3)cc1)c1ccccc1)C(=O)N2 have fractional viability strictly under 0.4?
Output line: true (1)

Input line: Does NC(=O)c1cn(Cc2c(F)cccc2F)nn1 [Rufinamide] have fractional viability strictly under 0.4?
Output line: false (0)

Input line: Does O=C(O)CCNC(=O)c1ccccc1 have fractional viability strictly under 0.4?
Output line: false (0)

Input line: Does COCC(=O)NC/C=C/c1ccc2ncnc(Nc3ccc(Oc4ccc(C)nc4)c(C)c3)c2c1 have fractional viability strictly under 0.4?
Output line: false (0)

Input line: Does Cc1cnc(Nc2ccc(N3CCN(C)CC3)cc2)nc1Nc1cccc(S(=O)(=O)NC(C)(C)C)c1 have fractional viability strictly under 0.4?
Output line: true (1)

----------
tested on: TYKNU; assay: fractional viability relative to vehicle; TYKNU is a high-grade serous ovarian cancer line; higher = less growth inhibition; conditions: 2uM; 72 h; genotype: sgCTRLA1 (non-targeting control)
Structures can show the parent of a compound that is named as a salt. Over roughly 2,000 compounds, “fractional viability relative to vehicle” has its median near 0.91; the lowest 2% begin near 0.045. Shown is part of a subset that was picked to be rich in the lowest values.
MEASURED PARAMETER: fractional viability
// print number alone

Input line: Which fractional viability reading was recorded for the compound O=C(N/N=C/c1cc(O)c(O)cc1O)c1cc2ccccc2cc1O ?
Output line: 1.05

Input line: Which fractional viability reading was recorded for the compound COc1ccc(CNC(=O)Nc2ncc([N+](=O)[O-])s2)cc1 ?
Output line: 1.14

Input line: Which fractional viability reading was recorded for the compound Cc1c(CN2CCN(C(=O)[C@H](C)O)CC2)sc2c(N3CCOCC3)nc(-c3cnc(N)nc3)nc12 ?
Output line: 0.238

Input line: Which fractional viability reading was recorded for the compound CCN1CCN(Cc2ccc(Nc3ncc(F)c(-c4cc(F)c5nc(C)n(C(C)C)c5c4)n3)nc2)CC1 ?
Output line: 0.473

Input line: Which fractional viability reading was recorded for the compound CC(C)Oc1ccc(C(=O)N[C@H](CNC(=O)CN(C)C)Cc2ccc(-c3cn4cccc([C@H](C)O)c4n3)cc2)cc1Cl ?
Output line: 0.508

Input line: Which fractional viability reading was recorded for the compound O=C(NCC1(c2nc(-c3ccccc3)cs2)CCOCC1)c1cccc(-c2noc(C(F)(F)F)n2)c1 ?
Output line: 1.05

Input line: Which fractional viability reading was recorded for the compound CC(=O)Oc1cc2c(s1)CCN(C(C(=O)C1CC1)c1ccccc1F)C2 (stereo not given) ?
Output line: 1.21

Input line: Which fractional viability reading was recorded for the compound Cc1nnc(C(C)C)n1C1C[C@H]2CC[C@@H](C1)N2CC[C@H](NC(=O)C1CCC(F)(F)CC1)c1ccccc1 (stereo in doubt) ?
Output line: 1.15

Input line: Which fractional viability reading was recorded for the compound CC(C)(C)C(=O)Nc1ccc2c(c1)C(=O)C(=O)c1ccccc1-2 ?
Output line: 0.0968

Input line: Which fractional viability reading was recorded for the compound COc1cc2ncnc(Sc3nnc(C)s3)c2cc1OC ?
Output line: 0.866

Input line: Which fractional viability reading was recorded for the compound NC1=N[C@@](c2cccc(-c3cncnc3)c2)(c2ccnc(C(F)F)c2)c2cccc(F)c21 ?
Output line: 1.01

Input line: Which fractional viability reading was recorded for the compound CCOC(=O)[C@H](CCc1ccccc1)N[C@@H](C)C(=O)N1C(=O)N(C)C[C@H]1C(=O)O [Imidapril HCl] ?
Output line: 1.1

Input line: Which fractional viability reading was recorded for the compound CN1CCC(Nc2nc(Nc3ccc(Oc4ccccc4)cc3)c3c(=O)[nH]cc(Br)c3n2)CC1 ?
Output line: 0.279

Input line: Which fractional viability reading was recorded for the compound O=C(NC1CC1)c1cc(-c2cccs2)on1 ?
Output line: 0.844

Input line: Which fractional viability reading was recorded for the compound CCCCC(=O)N(Cc1ccc(-c2ccccc2-c2nnn[nH]2)cc1)[C@H](C(=O)O)C(C)C.CCOC(=O)[C@H](C)C[C@@H](Cc1ccc(-c2ccccc2)cc1)NC(=O)CCC(=O)O ?
Output line: 0.941

Input line: Which fractional viability reading was recorded for the compound COc1cccc(-n2c(=O)[nH]c3cc(Cl)n(-c4ccc(-c5cccc(OC)c5O)cc4)c3c2=O)c1 ?
Output line: 1.02

Input line: Which fractional viability reading was recorded for the compound CCCCc1oc2ccccc2c1C(=O)c1cc(I)c(OCCN(CC)CC)c(I)c1 [Amiodarone HCl] ?
Output line: 1.07

Input line: Which fractional viability reading was recorded for the compound COc1cccc(-c2cc(F)ccc2C2Cc3nc(N)nc(C)c3C(=O)N2)n1 (stereo not given) ?
Output line: 0.191

Input line: Which fractional viability reading was recorded for the compound CC(C)(C)C(=O)C(Oc1ccc(Cl)cc1)n1ccnc1 (stereo not given) ?
Output line: 1.06

Input line: Which fractional viability reading was recorded for the compound Cn1cc(-c2ccc3nnc(C(F)(F)c4ccc5ncccc5c4)n3n2)cn1 ?
Output line: 0.994

Input line: Which fractional viability reading was recorded for the compound CN(NC(=O)CC(=O)NN(C)C(=S)c1ccccc1)C(=S)c1ccccc1 [Elesclomol (STA-4783)] ?
Output line: 0.0221

Input line: Which fractional viability reading was recorded for the compound C=C[C@@]1(C)CC(=O)[C@]2(O)[C@@]3(C)[C@@H](O)CCC(C)(C)[C@@H]3[C@H](O)[C@H](OC(C)=O)[C@@]2(C)O1 ?
Output line: 0.895

Input line: Which fractional viability reading was recorded for the compound Cc1cc(C)c(S(=O)(=O)n2cc(C)cc2C)c(C)c1 ?
Output line: 0.862

Input line: Which fractional viability reading was recorded for the compound c1nc2c(NC3CCCCC3)nc(Nc3ccc(N4CCOCC4)cc3)nc2[nH]1 ?
Output line: 0.579

Input line: Which fractional viability reading was recorded for the compound O=C(NC[C@H](O)CO)c1ccncc1Nc1ccc(I)cc1F ?
Output line: 0.318

Input line: Which fractional viability reading was recorded for the compound O=C(O)c1cc(=O)[nH]c(=O)[nH]1 ?
Output line: 1.04

Input line: Which fractional viability reading was recorded for the compound O=C(O)CCNC(=O)c1ccccc1 ?
Output line: 1.11

Input line: Which fractional viability reading was recorded for the compound C=C1CC[C@H](O)C/C1=C/C=C1\CCC[C@]2(C)[C@@H]([C@H](C)/C=C/[C@H](C)C(C)C)CC[C@@H]12 [Vitamin D2] ?
Output line: 1.02

Input line: Which fractional viability reading was recorded for the compound Nc1c(CC(=O)O)cccc1C(=O)c1ccc(Br)cc1 [Bromfenac Sodium] ?
Output line: 1.1

Input line: Which fractional viability reading was recorded for the compound COc1ccc(-c2cc3c(C)nc(N)nc3n([C@H]3CC[C@H](OCCO)CC3)c2=O)cn1 ?
Output line: 0.165

Input line: Which fractional viability reading was recorded for the compound O=C(c1cc(Cc2n[nH]c(=O)c3ccccc23)ccc1F)N1CCN(C(=O)C2CC2)CC1 ?
Output line: 1.06

Input line: Which fractional viability reading was recorded for the compound c1ccc(Cn2c(-c3ccc(OC[C@H](C4CCNCC4)n4c(-c5ccccc5)nc5ccccc54)cc3)nc3ccccc32)cc1 ?
Output line: 0.966

Input line: Which fractional viability reading was recorded for the compound CN(CCOc1ccc(NS(C)(=O)=O)cc1)CCc1ccc(NS(C)(=O)=O)cc1 [Dofetilide] ?
Output line: 0.981

Input line: Which fractional viability reading was recorded for the compound Cc1ncc(-c2ccnc(Nc3ccc(S(C)(=O)=O)cc3)n2)n1C(C)C ?
Output line: 0.182

Input line: Which fractional viability reading was recorded for the compound O=C(Nc1ccc(OC(F)(F)F)cc1)c1sccc1NCc1ccnc2ccccc12 ?
Output line: 0.906
